Every entry's value here was drawn from patent US11905279B1.

Exercise: for every item that follows, state its recorded inhibition at 10 µM.
target: human COX-2 (Homo sapiens, UniProt P35354); construct: purchased; test: Cyclooxygenase (COX-2) enzyme inhibition assay, COX (human) Inhibitor Screening Assay Kit; format: biochemical; details: compound at 10 μM; in vitro, human COX-2 isoenzyme; ELISA incubation 18 hours; read-out: % Inhibition( COX2) Mean ± SEM
Sequence (P35354 18-604): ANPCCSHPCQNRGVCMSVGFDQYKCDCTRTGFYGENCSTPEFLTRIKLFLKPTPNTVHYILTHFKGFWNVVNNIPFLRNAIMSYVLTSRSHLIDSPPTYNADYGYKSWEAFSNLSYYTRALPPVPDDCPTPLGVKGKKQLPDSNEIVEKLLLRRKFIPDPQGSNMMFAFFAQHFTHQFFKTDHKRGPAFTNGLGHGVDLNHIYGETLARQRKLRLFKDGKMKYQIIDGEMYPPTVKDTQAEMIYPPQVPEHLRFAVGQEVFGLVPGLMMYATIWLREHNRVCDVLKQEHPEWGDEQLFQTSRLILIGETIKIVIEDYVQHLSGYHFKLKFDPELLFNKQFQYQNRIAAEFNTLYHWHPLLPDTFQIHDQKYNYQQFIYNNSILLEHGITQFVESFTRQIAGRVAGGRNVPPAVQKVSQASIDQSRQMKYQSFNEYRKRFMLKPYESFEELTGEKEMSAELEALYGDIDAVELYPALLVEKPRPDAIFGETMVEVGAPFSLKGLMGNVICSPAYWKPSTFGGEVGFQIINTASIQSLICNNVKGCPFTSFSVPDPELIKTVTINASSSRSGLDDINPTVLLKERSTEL
Reply numerically in %, unit not repeated.

For the compound `CN1/C(=C\c2ccc(-c3ccccc3[N+](=O)[O-])o2)C(=O)N/C1=N\C(=O)Nc1cccc(F)c1` , what inhibition at 10 µM is on record?
39

Consider next the compound `CN1/C(=C\c2ccc(Br)o2)C(=O)N/C1=N\C(=O)Nc1ccc(F)cc1` in the same way.
89

Consider next the compound `CN1/C(=C\c2ccc(-c3ccccc3[N+](=O)[O-])o2)C(=O)N/C1=N\C(=O)Nc1ccc(F)cc1` in the same way.
20

Consider next the compound `CN1/C(=C\c2ccc(-c3ccccc3[N+](=O)[O-])o2)C(=O)N/C1=N\C(=S)Nc1cccc(Cl)c1` in the same way.
54

Consider next the compound `CN1/C(=C\c2ccc(Br)o2)C(=O)N/C1=N\C(=O)Nc1ccccc1F` in the same way.
78

Consider next the compound `CN1/C(=C\c2ccc(-c3ccccc3[N+](=O)[O-])o2)C(=O)N/C1=N\C(=O)Nc1ccccc1F` in the same way.
97

Consider next the compound `CN1/C(=C\c2ccc([N+](=O)[O-])cc2)C(=O)N/C1=N\C(=O)Nc1ccc(Cl)cc1Cl` in the same way.
69
